Where a name gives a salt, the structure may show the parent alone.
assay readout: melting point

Look over these answered cases.
O=c1[nH]c2c(Cl)cccc2c(=O)n1CCCN1C2CCC1CN(c1ccc(C(F)(F)F)cc1)C2 (as salt: maleate) | 205 to 207 °C
O=c1[nH]c2c(Cl)cccc2c(=O)n1CCCN1C2CCC1CN(c1ccc(Cl)c(Cl)c1)C2 (as salt: maleate) | 205 to 207 °C
O=c1[nH]c2c(Cl)cccc2c(=O)n1CCCN1CC2CCC1CN2c1ccc(Cl)c(Cl)c1 (stereo not shown) (as salt: maleate) | 68 to 73 °C (dec.)

Turning now to a further record.
Query: Please give the measured melting point for this molecule: O=c1[nH]c2c(Cl)cccc2c(=O)n1CCCCN1C2CCC1CN(c1ccc(Cl)cc1)C2 (as salt: maleate)
Response: 235 to 238 °C

====

Counter-ions that a name gives are not always drawn.
assay readout: melting point

Look over these answered cases.
Cc1ccc2[nH]c(=O)n(CCCN3C4CCC3CN(c3ccc(Cl)cc3)C4)c(=O)c2c1 (as salt: hydrochloride) | > 300 °C
O=c1[nH]c2c(Cl)cccc2c(=O)n1CCCN1C2CCC1CN(c1ccc(F)cc1)C2 (as salt: maleate) | 173 to 175 °C
O=c1[nH]c2ccccc2c(=O)n1CCCN1C2CCC1CN(c1ccc(Cl)c(Cl)c1)C2 (as salt: maleate) | 105 to 108 °C (dec.)
O=c1[nH]c2c(Cl)cccc2c(=O)n1CCCN1C2CCC1CN(c1ccc(Cl)cc1)C2 (as salt: maleate) | 186 to 188 °C
O=c1[nH]c2ccccc2c(=O)n1CCCN1C2CCC1CN(c1ccc(F)cc1)C2 (as salt: maleate) | 70 to 74 °C

Query: Please give the measured melting point for this compound: O=c1[nH]c2c(Cl)cccc2c(=O)n1CCCN1CC2CC1CN2c1ccc(Cl)cc1 (stereo not shown) (as salt: maleate)
Response: 205 to 207 °C

Query: Please give the measured melting point for this compound: O=c1[nH]c2c(Cl)cccc2c(=O)n1CCCN1CC2CCC1CN2c1ccc(F)cc1 (stereo not shown) (as salt: maleate)
Response: 186 to 188 °C

====

Where a name gives a salt, the structure may show the parent alone.
assay readout: melting point

Look over these answered cases.
O=c1[nH]c2ccccc2c(=O)n1CCCCN1C2CCC1CN(c1ccc(Cl)cc1)C2 (as salt: maleate) | 187 to 189 °C
O=c1[nH]c2ccccc2c(=O)n1CCCN1CC2CCC1CN2c1ccc(F)cc1 (centres unmarked) (as salt: maleate) [Example 49] | 95 to 98 °C (dec.)
O=c1[nH]c2c(Cl)cccc2c(=O)n1CCCN1CC2CC1CN2c1cccc(F)c1 (centres unmarked) (as salt: maleate) [Example 42] | 168 to 170 °C
Cc1ccc(N2CC3CCC(C2)N3CCCn2c(=O)[nH]c3c(Cl)cccc3c2=O)c(C)c1 (as salt: maleate) | 217 to 219 °C

Turning now to a further record.
Query: Please give the measured melting point for this compound: Cc1ccc(N2CC3CCC2CN3CCCn2c(=O)[nH]c3c(Cl)cccc3c2=O)c(C)c1 (centres unmarked) (as salt: maleate)
Response: 149 to 151 °C
